Data origin, for the record: ChEMBL document CHEMBL1123417

Assign MIC to each entry below.
Test system: Escherichia coli
Assay: Antibacterial activity against Escherichia coli (H560)
One number for each entry, in µg/mL.

> print(dat)
                              smiles.string  unit.spec  measured.value
1  CCn1cc(C(=O)O)c(=O)c2cc(F)c(N3CCN(CCN)CC3)nc21      µg/mL            12.5
2  CCn1cc(C(=O)O)c(=O)c2cc(F)c(N3CCC(N4CCN(C)CC4)CC3)cc21      µg/mL            12.5
3  CCn1cc(C(=O)O)c(=O)c2c(N)nc(N3CCCC3)nc21      µg/mL             100
4           CCn1cc(C(=O)O)c(=O)c2cc(F)ccc21      µg/mL              25
5        CCn1cc(C(=O)O)c(=O)c2cc(F)c(C)cc21      µg/mL             0.4
6     CCn1cc(C(=O)O)c(=O)c2cc(F)c(SCCN)cc21      µg/mL             3.1
7  CCn1cc(C(=O)O)c(=O)c2cc(F)c(N3CCN(CCN)CC3)cc21      µg/mL              25
8        CCn1cc(C(=O)O)c(=O)c2cc(F)c(C)nc21      µg/mL             3.1

List the reported MIC of each molecule below.
1. CCn1cc(C(=O)O)c(=O)c2ccc(/C=N/N3CCN(C)CC3)nc21
2. CCn1cc(C(=O)O)c(=O)c2cc(F)c(N3CCNCC3)c(F)c21
3. CCn1cc(C(=O)O)c(=O)c2cc(F)c(N3CCC(N4CCCC4)CC3)cc21
4. CCn1cc(C(=O)O)c(=O)c2cc([N+](=O)[O-])c(C)nc21
5. COn1cc(C(=O)O)c(=O)c2cc3c(cc21)OCO3
6. CCn1cc(C(=O)O)c(=O)c2cc(F)c(/C=N/N3CCN(C)CC3)nc21
7. CCn1cc(C(=O)O)c(=O)c2cc(F)c(N3CCSCC3)nc21

[A]
1. 12.5
2. 0.1
3. 0.1
4. 50
5. 0.4
6. 50
7. 1.6

Below are 2 molecules. Give each one its MIC.
1. CCn1cc(C(=O)O)c(=O)c2cc(F)c(N3CCN(C(C)=N)CC3)nc21
2. CCn1cc(C(=O)O)c(=O)c2cc(F)c(N3CCSCC3)cc21

[A]
[0.8, 0.1]

Batch of 4 molecules: report MIC for each.
1. CCn1cc(C(=O)O)c(=O)c2cc(F)c(N3CCSC3)cc21
2. CCn1cc(C(=O)O)c(=O)c2ccc(N3CCN(CC#N)CC3)cc21
3. CCn1cc(C(=O)O)c(=O)c2c(N)nc(N3CCNCC3)nc21
4. CCn1cc(C(=O)O)c(=O)c2cc([N+](=O)[O-])ccc21

[A]
1. 0.2
2. 50
3. 3.1
4. 50
